Taken from patent US20200283521A1.

Target: T1, human C-KIT-Fc (human, UniProt P10721 26-524)
T1 construct: also called biotinylated human C-KIT-Fc; not shown: Fc part not described
Test: direct ELISA;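 also: Plate-coated C-KIT-Fc (1 µg/ml) probed with antibodies for 1 hr, bound IgG detected via anti-human kappa-HRP and TMB, absorbance measured at 450 nm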
Assay metric: binding result

* MH5.16 (antibody, IgG1, V domains shown, IgG1) VH: QVQLVQSGAEVKKPGASVKVSCKASGYTFTDFYMNWVRQAPGQGLEWMGRIYPGTGNTYYAQKFQGRVTMTRDTSTSTVYMELSSLRSEDTAVYYCARGVWYFDTWGQGTLVTVSS VL: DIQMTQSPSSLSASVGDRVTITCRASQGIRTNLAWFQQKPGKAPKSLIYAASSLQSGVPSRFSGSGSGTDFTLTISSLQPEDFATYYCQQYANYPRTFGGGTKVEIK | binds
* MH5.18 (antibody, IgG1, V domains shown, IgG1) VH: QVQLVQSGAEVKKPGASVKVSCKASGYTFTDFYMNWVRQAPGQGLEWMGRIYPGAGNTYYAQKFQGRVTMTRDTSTSTVYMELSSLRSEDTAVYYCARGVWYYDYWGQGTLVTVSS VL: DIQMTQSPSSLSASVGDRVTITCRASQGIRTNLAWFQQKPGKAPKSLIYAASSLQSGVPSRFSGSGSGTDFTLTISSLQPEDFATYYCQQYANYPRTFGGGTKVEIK | binds
* MH5.36 (antibody, IgG1, V domains shown, IgG1) VH: QVQLVQSGAEVKKPGASVKVSCKASGYTFTNYYMNWVRQAPGQGLEWMGRIYPASGNTYYAQKFQGRVTMTRDTSTSTVYMELSSLRSEDTAVYYCARGVWYFDEWGQGTLVTVSS VL: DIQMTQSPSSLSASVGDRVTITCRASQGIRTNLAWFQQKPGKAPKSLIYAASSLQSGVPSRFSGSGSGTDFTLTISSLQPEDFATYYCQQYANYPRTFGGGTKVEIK | binds
